The reported numbers originate from patent US20090311237A1.

experiment: Phase 1 Stage 1 clinical pharmacokinetics of SC ZA co-administered with rHuPH20; format: in vivo, human; details: human, serum, sc, AUC (0-12h), ZA 0.5 mg SC + 24000 U rHuPH20; median, n=3
reported property: AUC(0-t) (ng·h/mL)

# molecule, output unit, recorded measurement
rows = [
    ("O=P(O)(O)C(O)(Cn1ccnc1)P(=O)(O)O", "ng·h/mL", 62.4),
]

----------
test: Pharmacokinetics of ZA in pig serum after IV or SC infusion with or without rHuPH20 (LC-MS-MS, non-compartmental analysis); format: in vivo; details: female, Yorkshire, pig, serum, subcutaneous, […], Time 1 h; pig ID 62; Study Group 2; SC; ZA […]; 50 mL, 8 min; rHuPH20 0 U/mL; read-out: Zoledronic Acid Serum Concentration

# compound, concentration at 1 h [ng/mL]
data = [
    ("O=P(O)(O)C(O)(Cn1ccnc1)P(=O)(O)O [ZA]", 81.6),
]

----------
Assay: Pharmacokinetics of ZA in pig serum after IV or SC infusion with or without rHuPH20 (LC-MS-MS, non-compartmental analysis)
Format: in vivo
Details: female, Yorkshire, pig, serum, subcutaneous, […], Time 0.333 h; pig ID 60; Study Group 2; SC; ZA […]; 100 mL, 16 min; rHuPH20 0 U/mL; read-out: Zoledronic Acid Serum Concentration
Method: A pharmacokinetic study of zoledronic acid (ZA) co-administered with rHuPH20 in female Yorkshire swines was conducted. […] Serum concentration of ZA was determined using a qualified LC-MS-MS assay after derivatization with diazomethane (Zhu, L S et al. (2006) Rapid Commun. Mass Spectrom. 20: 3421-3426; “Qualification Data of An LC-MS/MS Method for the Determination of Zoledronate in Porcine Serum”, MDS Pharma Services Study No. AA43671-01, Report Date 14 Sep. 2007). […]
reported property: concentration at 0.333 h (ng/mL)

# molecule, recorded measurement
data = [
    ("O=P(O)(O)C(O)(Cn1ccnc1)P(=O)(O)O", 255),
]

----------
Assay: Pharmacokinetics of ZA in pig serum after IV or SC infusion with or without rHuPH20 (LC-MS-MS, non-compartmental analysis)
Assay type: in vivo
Conditions: female, Yorkshire, pig, serum, iv, […], pig; ZA […] 20-min IV infusion; n=3; read-out: Tmax, mean
Description: A pharmacokinetic study of zoledronic acid (ZA) co-administered with rHuPH20 in female Yorkshire swines was conducted. […] Serum concentration of ZA was determined using a qualified LC-MS-MS assay after derivatization with diazomethane (Zhu, L S et al. (2006) Rapid Commun. Mass Spectrom. 20: 3421-3426; “Qualification Data of An LC-MS/MS Method for the Determination of Zoledronate in Porcine Serum”, MDS Pharma Services Study No. AA43671-01, Report Date 14 Sep. 2007). […]
reported property: Tmax (min)

# compound, recorded measurement
data = [
    ("O=P(O)(O)C(O)(Cn1ccnc1)P(=O)(O)O [ZA]", 15),
]

----------
test: Phase 1 Stage 1 clinical pharmacokinetics of SC ZA co-administered with rHuPH20; format: in vivo, human; settings: human, serum, sc, […], Subj 77; ZA […] SC; inf […]; PH20 6000 U
reported property: Cmax (ng/mL)

# molecule, reported property, output unit, recorded measurement
rows = [
    ("O=P(O)(O)C(O)(Cn1ccnc1)P(=O)(O)O", "Cmax", "ng/mL", 147),
]
